# Tested on: CASKI
# Assay: Confirmatory qHTS for gynecologic anti-cancer compounds from libraries of approved drugs and bioactive compounds; further: nearly all actives have a fitted effect of over 55% in size
# Details: gynecologic cancer cell panel viability, ATPlite luminescence, 48 h; series mostly up to 57.6 µM
Inconclusive results are not listed. Activity calls are given as the source filed them. The call rests on the fitted dose curve; in most records, active means well fitted cell-killing curve with a large enough effect; inconclusive means small, poorly fitted or top-dose-only effect, or effect the other way; inactive means no such curve, though single readings can be large or run the other way.
Classes used: yes (1) (active), no (0) (inactive)

>>> class("CN(C)CCC(CSc1ccccc1)Nc1ccc(S(=O)(=O)NC(=O)c2ccc(N3CCN(Cc4ccccc4-c4ccc(Cl)cc4)CC3)cc2)cc1[N+](=O)[O-] (stereo unspecified)")
"yes (1)"
>>> class("COc1ccc2c(c1)c(CC(=O)O)c(C)n2C(=O)c1ccc(Cl)cc1")
"no (0)"
>>> class("COC(C(=O)N1Cc2[nH]nc(NC(=O)c3ccc(N4CCN(C)CC4)cc3)c2C1)c1ccccc1 (stereo unspecified)")
"yes (1)"
>>> class("CCC1C(=O)N(C)c2cnc(Nc3ccc(C(=O)NC4CCN(C)CC4)cc3OC)nc2N1C1CCCC1 (stereo unspecified)")
"yes (1)"
>>> class("CN(C)c1ccc(-c2nc3ncc(Cl)c(N4CCN(CC(=O)Nc5nccs5)CC4)c3[nH]2)cc1")
"no (0)"
>>> class("Cc1ccc(C(N)=O)cc1Nc1nccc(-c2cn(C(C)C)c3cnccc23)n1")
"yes (1)"

* * *

# Tested on: CASKI
# Assay: Confirmatory qHTS for gynecologic anti-cancer compounds from libraries of approved drugs and bioactive compounds; further: nearly all actives have a fitted effect of over 55% in size
# Details: gynecologic cancer cell panel viability, ATPlite luminescence, 48 h; series mostly up to 57.6 µM
Results filed as inconclusive are left out. Calls of active or inactive are those of the source. The call rests on the fitted dose curve; in most records, active means well fitted cell-killing curve with a large enough effect; inconclusive means small, poorly fitted or top-dose-only effect, or effect the other way; inactive means no such curve, though single readings can be large or run the other way.
Classes used: active, inactive

>>> class("CCS(=O)(=O)c1cccc(-c2cc(C(=O)NC3CCN(C)CC3)c(C)c3[nH]c4ncc(C)cc4c23)c1")
"active"
>>> class("O=c1cc(CN2CCOCC2)occ1OCCCCCSc1ccnc2cc(C(F)(F)F)ccc12")
"active"
>>> class("CC(C)C[C@H](NC(=O)[C@H](CCc1ccccc1)NC(=O)CN1CCOCC1)C(=O)N[C@@H](Cc1ccccc1)C(=O)N[C@@H](CC(C)C)C(=O)[C@@]1(C)CO1")
"active"
>>> class("COc1ccccc1N1CCN(CC(O)COc2cccc3ccccc23)CC1 (configuration not stated)")
"inactive"
>>> class("O=C1Cc2cc(CCN3CCN(c4nsc5ccccc45)CC3)c(Cl)cc2N1")
"inactive"
>>> class("CCOC(=O)C1=C(C)NC2=C(C(=O)CC(C)(C)C2)C1c1ccc(-c2ccccc2)cc1 (configuration not stated)")
"inactive"
>>> class("CC(C)n1nc(-c2cc3cc(O)ccc3[nH]2)c2c(N)ncnc21")
"active"
>>> class("COc1cc(Nc2ncc(F)c(Nc3ccc4c(n3)N(COP(=O)(O)O)C(=O)C(C)(C)O4)n2)cc(OC)c1OC")
"active"
>>> class("O=C(c1ccc(F)c(F)c1Nc1ccc(I)cc1F)N1CC(O)([C@@H]2CCCCN2)C1")
"active"
>>> class("Cc1ccc(C(=O)N(CCCN)C(c2oc3cc(Cl)ccc3c(=O)c2Cc2ccccc2)C(C)C)cc1 (configuration not stated)")
"active"
>>> class("OCc1ccc(-c2ccc(-c3ccc(CO)s3)o2)s1")
"inactive"
>>> class("CCc1nc(C(N)=O)c(Nc2ccc(N3CCC(N4CCN(C)CC4)CC3)c(OC)c2)nc1NC1CCOCC1")
"active"
>>> class("OC[C@H]1O[C@@H](n2cnc3c(=S)nc[nH]c32)[C@H](O)[C@@H]1O")
"active"
>>> class("CCCCc1oc2ccc(NS(C)(=O)=O)cc2c1C(=O)c1ccc(OCCCN(CCCC)CCCC)cc1")
"active"
>>> class("CNC(=O)c1ccccc1Nc1nc(Nc2ccc(N3CCOCC3)cc2OC)ncc1Cl")
"active"
>>> class("COc1ccc2cc3[n+](cc2c1OC)CCc1cc2c(cc1-3)OCO2")
"active"
>>> class("CO[C@@]12[C@H](COC(N)=O)C3=C(C(=O)C(C)=C(N)C3=O)N1C[C@@H]1N[C@@H]12")
"inactive"
>>> class("CC[C@@]1(O)C(=O)OCc2c1cc1n(c2=O)Cc2cc3cc(O)ccc3nc2-1")
"active"
>>> class("CC(C)(C)C(=O)OCOP(=O)(COCCn1cnc2c(N)ncnc21)OCOC(=O)C(C)(C)C")
"inactive"
>>> class("O=C(Nc1cccnc1)N1CCC(Cc2cccc(Oc3ccc(C(F)(F)F)cn3)c2)CC1")
"active"
>>> class("Cc1nc(Nc2ncc(C(=O)Nc3c(C)cccc3Cl)s2)cc(N2CCN(CCO)CC2)n1")
"active"
>>> class("NS(=O)(=O)c1ccc(Nc2nc(OCC3CCCCC3)c3[nH]cnc3n2)cc1")
"inactive"
>>> class("Cc1cc(C(C)Nc2ccccc2C(=O)O)c2nc(N3CCOCC3)cc(=O)n2c1 (configuration not stated)")
"active"
>>> class("COc1cc(N2CCC(N3CCN(C)CC3)CC2)ccc1Nc1ncc(Cl)c(Nc2ccccc2S(=O)(=O)C(C)C)n1")
"active"
>>> class("O=c1c2ccccc2nc2n1CCc1c-2[nH]c2ccccc12")
"inactive"
>>> class("C[C@@H](Oc1cc(-c2cnn(C3CCNCC3)c2)cnc1N)c1c(Cl)ccc(F)c1Cl")
"active"
>>> class("Cc1ccc(C(=O)Nc2ccc(CN3CCN(C)CC3)c(C(F)(F)F)c2)cc1C#Cc1cnc2cccnn12")
"active"
>>> class("CCN[C@H]1C[C@H](C)S(=O)(=O)c2sc(S(N)(=O)=O)cc21")
"inactive"
>>> class("CNC(=O)c1ccccc1Sc1ccc2c(/C=C/c3ccccn3)n[nH]c2c1")
"active"
>>> class("CCN(CC)CCNC(=O)c1c(C)[nH]c(/C=C2\\C(=O)Nc3ccc(F)cc32)c1C")
"active"
>>> class("CC(=O)c1cnc2ccc(-c3cc(Cl)c(O)c(Cl)c3)nc2c1NC1CCC(CN(C)C)CC1 (configuration not stated)")
"active"
>>> class("Nc1cccc(-c2cc3c(Oc4cccc(O)c4)ncnc3[nH]2)c1")
"active"
>>> class("COc1cc(Nc2ncc3c(n2)-c2ccc(Cl)cc2C(c2c(F)cccc2OC)=NC3)ccc1C(=O)O")
"active"
>>> class("Cc1ccc(C(=O)Nc2ccc(Oc3cc4cnn(C)c4cc3-c3cn[nH]c3)c(F)c2)c(=O)n1-c1ccc(F)cc1")
"inactive"
>>> class("Cc1ccc(C(=O)Nc2cccc(C(F)(F)F)c2)cc1-c1ccc2nc(NCCN3CCOCC3)ncc2c1")
"active"
>>> class("Cc1ccc(C(=O)N(CCCN)C(c2nc3cc(Cl)ccc3c(=O)n2Cc2ccccc2)C(C)C)cc1 (configuration not stated)")
"active"
>>> class("CN(C)C/C=C/C(=O)Nc1cc2c(Nc3ccc(F)c(Cl)c3)ncnc2cc1OC1CCOC1 (configuration not stated)")
"active"
